Target: T1, αvβ3 (Homo sapiens)
T1 chain 1: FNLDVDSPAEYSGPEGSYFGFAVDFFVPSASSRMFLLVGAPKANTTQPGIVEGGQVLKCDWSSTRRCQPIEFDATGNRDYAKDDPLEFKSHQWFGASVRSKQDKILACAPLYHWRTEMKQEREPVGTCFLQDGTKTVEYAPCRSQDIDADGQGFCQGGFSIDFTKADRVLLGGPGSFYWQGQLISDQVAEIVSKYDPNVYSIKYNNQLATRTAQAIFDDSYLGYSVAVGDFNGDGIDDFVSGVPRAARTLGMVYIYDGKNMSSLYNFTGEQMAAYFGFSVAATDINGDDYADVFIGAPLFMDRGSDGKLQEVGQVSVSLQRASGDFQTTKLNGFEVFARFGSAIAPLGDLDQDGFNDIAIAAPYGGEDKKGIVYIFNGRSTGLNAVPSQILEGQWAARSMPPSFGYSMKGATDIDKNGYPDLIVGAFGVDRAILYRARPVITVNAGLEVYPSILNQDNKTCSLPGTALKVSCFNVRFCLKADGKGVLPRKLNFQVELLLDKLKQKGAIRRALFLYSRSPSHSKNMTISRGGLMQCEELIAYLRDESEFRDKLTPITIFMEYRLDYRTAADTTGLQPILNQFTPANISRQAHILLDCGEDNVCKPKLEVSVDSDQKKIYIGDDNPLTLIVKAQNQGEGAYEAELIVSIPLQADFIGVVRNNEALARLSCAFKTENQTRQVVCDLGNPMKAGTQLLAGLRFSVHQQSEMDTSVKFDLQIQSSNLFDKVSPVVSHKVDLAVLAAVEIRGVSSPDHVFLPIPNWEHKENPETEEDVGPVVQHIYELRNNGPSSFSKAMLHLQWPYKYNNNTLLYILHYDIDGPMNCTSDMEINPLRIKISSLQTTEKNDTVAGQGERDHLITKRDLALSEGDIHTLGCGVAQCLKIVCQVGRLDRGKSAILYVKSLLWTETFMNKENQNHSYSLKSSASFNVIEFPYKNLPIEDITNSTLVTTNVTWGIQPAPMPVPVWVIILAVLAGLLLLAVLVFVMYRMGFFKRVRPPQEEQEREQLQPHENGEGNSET
T1 chain 2: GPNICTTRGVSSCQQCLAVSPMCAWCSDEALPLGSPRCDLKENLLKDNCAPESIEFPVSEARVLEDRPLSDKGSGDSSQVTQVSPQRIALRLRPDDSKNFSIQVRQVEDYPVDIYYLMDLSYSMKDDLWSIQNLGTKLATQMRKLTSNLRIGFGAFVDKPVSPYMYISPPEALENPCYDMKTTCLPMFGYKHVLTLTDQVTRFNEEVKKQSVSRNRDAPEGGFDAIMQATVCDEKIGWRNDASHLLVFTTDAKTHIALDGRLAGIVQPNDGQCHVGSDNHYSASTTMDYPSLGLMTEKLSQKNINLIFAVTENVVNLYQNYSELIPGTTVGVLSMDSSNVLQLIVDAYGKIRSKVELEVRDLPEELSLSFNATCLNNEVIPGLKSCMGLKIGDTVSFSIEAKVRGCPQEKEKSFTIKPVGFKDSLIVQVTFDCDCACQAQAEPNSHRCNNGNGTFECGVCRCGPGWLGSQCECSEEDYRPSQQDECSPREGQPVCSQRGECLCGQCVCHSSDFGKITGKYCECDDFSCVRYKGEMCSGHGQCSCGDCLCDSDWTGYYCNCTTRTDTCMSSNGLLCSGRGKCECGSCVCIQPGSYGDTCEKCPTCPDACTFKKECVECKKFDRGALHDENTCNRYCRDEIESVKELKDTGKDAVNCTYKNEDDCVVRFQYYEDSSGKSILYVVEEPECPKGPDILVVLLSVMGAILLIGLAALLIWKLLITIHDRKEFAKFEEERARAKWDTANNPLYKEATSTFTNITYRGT
Assay: BLI

>  <binder>
B6_BP_dslf (designed binder, full-length mature chains taken as on K562 cells; soluble ectodomain possible for BLI; divalent cations, glycosylated) TKCVVRFVFRGDLAELMLRAVKDHLKKEGPHWNITSTNNGKELVVRGIHESDAKRIAKWVEKRFPRVHTETQCD

>  <Kd>
> 200 nM

$$$$
>  <binder>
B8_BP-LATY (designed binder, full-length mature chains taken as on K562 cells; soluble ectodomain possible for BLI; divalent cations, glycosylated) TKCVVRFNFRGDLATYALKAVKDHLKKEGPHWNITTHNDDEVYLVVRGIHESDAKRIAKWVESTIPGISVETQCD

>  <Kd>
> 1000 nM

$$$$
